Tested Target: Human JNK2α2 (Homo sapiens (Human))
Parameter: pIC50
Just the number, please; pIC50 means minus log10 of the concentration in mol/L.

smiles_representation=CC(=O)N1CCN(c2cccc3c2ccn3-c2ccnc(N[C@H]3CC[C@H](CS(C)(=O)=O)CC3)n2)CC1 parameter=pIC50 numeric_readout=6.79

Next up:
Dear colleague, I am looking for the recorded pIC50 of the following compound: CC(C)(O)[C@H]1CC[C@H](Nc2nccc(-n3ccc4c(N5CCC(S(C)(=O)=O)CC5)cccc43)n2)CC1 7.72

---

Tested Target: Human JNK1α1 (Homo sapiens (Human))
Sequence (P45983 other isoform, or with tags, fused parts or gaps): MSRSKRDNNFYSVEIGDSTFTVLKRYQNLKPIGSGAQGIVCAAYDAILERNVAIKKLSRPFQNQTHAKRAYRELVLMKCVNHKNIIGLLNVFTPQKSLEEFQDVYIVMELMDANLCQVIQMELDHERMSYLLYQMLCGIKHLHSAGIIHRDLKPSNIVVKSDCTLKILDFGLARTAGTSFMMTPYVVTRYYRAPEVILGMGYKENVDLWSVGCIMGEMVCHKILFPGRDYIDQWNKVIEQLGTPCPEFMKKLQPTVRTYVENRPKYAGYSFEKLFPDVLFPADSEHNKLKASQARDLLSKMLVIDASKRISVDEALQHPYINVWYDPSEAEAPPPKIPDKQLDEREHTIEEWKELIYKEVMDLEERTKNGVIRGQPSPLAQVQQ
Note to self: IC50 under 4 nM means Yes, ties and anything higher get No.

These solved cases illustrate the format of a correct answer.
smiles_representation=CC(=O)N1CCN(c2cccc3c2ccn3-c2ccnc(NC3CCCCC3)n2)CC1 tested_target="Human JNK1α1 (Homo sapiens (Human))" class_assignment=No
smiles_representation=N#CCC(=O)N1CCN(c2cccc3c2ccn3-c2ccnc(N[C@H]3CC[C@@H](O)CC3)n2)CC1 tested_target="Human JNK1α1 (Homo sapiens (Human))" class_assignment=No
smiles_representation=CS(=O)(=O)N[C@H]1CC[C@H](Nc2nccc(-n3ccc4c(N5CCC(S(C)(=O)=O)CC5)cccc43)n2)CC1 tested_target="Human JNK1α1 (Homo sapiens (Human))" class_assignment=Yes

# strict comparison: is reported IC50 < 4 nM? input = CC(=O)N1CCN(c2cccc3c2ccn3-c2ccnc(N[C@H]3CC[C@H](N(C)S(C)(=O)=O)CC3)n2)CC1 No

# strict comparison: is reported IC50 < 4 nM? input = CC(=O)OCC(=O)N1CCN(c2cccc3c2ccn3-c2ccnc(N[C@H]3CC[C@H](NS(C)(=O)=O)CC3)n2)CC1 No

# strict comparison: is reported IC50 < 4 nM? input = CC(C)(C)OC(=O)NCC(=O)N1CCN(c2cccc3c2ccn3-c2ccnc(N[C@H]3CC[C@H](NS(C)(=O)=O)CC3)n2)CC1 Yes

# strict comparison: is reported IC50 < 4 nM? input = CS(=O)(=O)C1CCN(c2cccc3c2ccn3-c2ccnc(N[C@H]3CC[C@H](C(=O)N4CCn5c(nnc5C(F)(F)F)C4)CC3)n2)CC1 Yes

---

Tested Target: Human JNK2α2 (Homo sapiens (Human), UniProt P45984)
Sequence (P45984 whole entry): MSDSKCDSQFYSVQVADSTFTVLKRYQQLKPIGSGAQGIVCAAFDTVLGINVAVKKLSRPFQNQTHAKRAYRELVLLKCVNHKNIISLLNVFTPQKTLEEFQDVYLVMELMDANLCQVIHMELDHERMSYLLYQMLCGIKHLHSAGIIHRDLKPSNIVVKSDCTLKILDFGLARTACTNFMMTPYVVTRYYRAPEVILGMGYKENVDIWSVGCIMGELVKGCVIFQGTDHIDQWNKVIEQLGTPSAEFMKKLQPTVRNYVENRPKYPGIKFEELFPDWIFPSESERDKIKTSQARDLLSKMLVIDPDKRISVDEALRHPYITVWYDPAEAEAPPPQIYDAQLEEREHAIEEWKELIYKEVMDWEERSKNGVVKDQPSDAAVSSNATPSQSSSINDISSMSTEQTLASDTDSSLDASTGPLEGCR
Parameter: pIC50
Just the number, please; pIC50 means minus log10 of the concentration in mol/L.

compound="N#CCC(=O)N1CCN(c2cccc3c2ccn3-c2ccnc(N[C@H]3CCC[C@H](O)C3)n2)CC1 [Compound I-34]" numeric_readout=7.05
compound="CS(=O)(=O)C1CCN(c2cccc3c2cnn3-c2ccnc(N[C@H]3CC[C@H](O)CC3)n2)CC1 [Compound I-66]" numeric_readout=7.78
compound="CS(=O)(=O)N[C@H]1CC[C@H](Nc2nccc(-n3ccc4c(N5CCN(S(N)(=O)=O)CC5)cccc43)n2)CC1 [Compound I-8]" numeric_readout=7.08
compound="CC(=O)N[C@H]1CC[C@H](Nc2nccc(-n3ccc4c(N5CCC(S(C)(=O)=O)CC5)cccc43)n2)CC1 [Compound I-13]" numeric_readout=7.31
compound="CS(=O)(=O)C1CCN(c2cccc3c2ccn3-c2ccnc(N[C@H]3CC[C@H](C(=O)N4CCN(C5CCC5)CC4)CC3)n2)CC1 [Compound I-49]" numeric_readout=7.22

Dear colleague, I am looking for the recorded pIC50 of the following compound: N#CCC(=O)N1CCN(c2cccc3c2ccn3-c2ccnc(NC3CCCCC3)n2)CC1 [Compound I-38] 7.37

Dear colleague, I am looking for the recorded pIC50 of the following compound: N#CCC(=O)N1CCN(c2cccc3c2ccn3-c2ccnc(N[C@H]3CC[C@@H](O)C3)n2)CC1 [Compound I-58] 6.09

Dear colleague, I am looking for the recorded pIC50 of the following compound: CS(=O)(=O)N[C@H]1CC[C@H](Nc2nccc(-n3ccc4c(N5CCN(C(N)=O)CC5)cccc43)n2)CC1 [Compound I-7] 7.06

Dear colleague, I am looking for the recorded pIC50 of the following compound: N#CCC(=O)N1CCN(c2cccc3c2ccn3-c2ccnc(N[C@H]3CC[C@H](O)CC3)n2)CC1 [Compound I-55] 7.64

Dear colleague, I am looking for the recorded pIC50 of the following compound: O[C@H]1CC[C@H](Nc2nccc(-n3ccc4c(N5CCCCC5)cccc43)n2)CC1 [Compound I-2] 6.18

Dear colleague, I am looking for the recorded pIC50 of the following compound: CC(=O)OCC(=O)N1CCN(c2cccc3c2ccn3-c2ccnc(N[C@H]3CC[C@H](NS(C)(=O)=O)CC3)n2)CC1 [Compound I-10] 7.13

Dear colleague, I am looking for the recorded pIC50 of the following compound: CS(=O)(=O)N[C@H]1CC[C@H](Nc2nccc(-n3ccc4c(N5CCC(O)CC5)cccc43)n2)CC1 [Compound I-4] 6.53

Dear colleague, I am looking for the recorded pIC50 of the following compound: N#CCC(=O)N1CCN(c2cccc3c2ccn3-c2ccnc(N[C@H]3CC[C@H](CN4CC[C@H](O)C4)CC3)n2)CC1 [Compound I-28] 7.26

Dear colleague, I am looking for the recorded pIC50 of the following compound: CS(=O)(=O)N[C@H]1CC[C@H](Nc2nccc(-n3ccc4c(N5CCN(C(=O)CC#N)CC5)cccc43)n2)CC1 [Compound I-9] 7.44

---

This section lists IC50 readings for Human JNK2α2 (Homo sapiens (Human)).
Hi! Could you send only the number? It should be in nM, unit omitted.

Worked cases, IC50 given:
smiles_representation=CC(=O)N1CCN(c2cccc3c2c(C(N)=O)cn3-c2ccnc(N[C@H]3CC[C@H](O)CC3)n2)CC1 scale_unit=nM numeric_readout=25.7
smiles_representation=N#CCC(=O)N1CCN(c2cccc3c2ccn3-c2ccnc(N[C@H]3CC[C@H](O)C3)n2)CC1 scale_unit=nM numeric_readout=150
smiles_representation=CS(=O)(=O)C1CCN(c2cccc3c2ccn3-c2ccnc(N[C@H]3CC[C@H](C(=O)N4CCn5ccnc5C4)CC3)n2)CC1 scale_unit=nM numeric_readout=15.2
smiles_representation=N#CCC(=O)N1CCN(c2cccc3c2ccn3-c2ccnc(N[C@H]3CC[C@H](CO)CC3)n2)CC1 scale_unit=nM numeric_readout=12.8
smiles_representation=CS(=O)(=O)N[C@H]1CC[C@H](Nc2nccc(-n3ccc4c(N5CCNCC5)cccc43)n2)CC1 scale_unit=nM numeric_readout=1430

Next up:
Dear colleague, I am looking for the recorded IC50 of the following molecule: CCN1CCN(C(=O)[C@H]2CC[C@H](Nc3nccc(-n4ccc5c(N6CCC(S(C)(=O)=O)CC6)cccc54)n3)CC2)CC1 36

---

This section lists log10 IC50 readings for Human JNK2α2 (Homo sapiens (Human)).
Please interpret these as log10 of IC50 where IC50 is in nM.

Worked cases, log10 IC50 given:
compound="CN(C)CC(=O)N1CCN(c2cccc3c2ccn3-c2ccnc(N[C@H]3CC[C@H](NS(C)(=O)=O)CC3)n2)CC1 [Compound I-23]" numeric_readout=3.21
compound="CC(=O)N1CCN(c2cccc3c2ccn3-c2ccnc(N[C@H]3CC[C@H](CN4CC[C@@H](O)C4)CC3)n2)CC1 [Compound I-29]" numeric_readout=2.72
compound="CS(=O)(=O)N[C@H]1CC[C@H](Nc2nccc(-n3ccc4c(N5CCC(S(C)(=O)=O)CC5)cccc43)n2)CC1 [Compound I-6]" numeric_readout=1.37
compound="CC(=O)N1CCN(c2cccc3c2ccn3-c2ccnc(N[C@H]3CC[C@H](C(=O)N4CCC(O)CC4)CC3)n2)[C@H](C)C1 [Compound I-21]" numeric_readout=2.14
compound="COCCO[C@H]1CC[C@H](Nc2nccc(-n3ccc4c(N5CCN(C(=O)CC#N)CC5)cccc43)n2)CC1 [Compound I-40]" numeric_readout=1.54

Next up:
Form field - read-out: log10 IC50; system: Human JNK2α2 (Homo sapiens (Human)); submitted item: CCN1CCN(C(=O)[C@H]2CC[C@H](Nc3nccc(-n4ccc5c(N6CCN(C(=O)CC#N)CC6)cccc54)n3)CC2)CC1 [Compound I-56] 1.27

# credit: patent US8536172B2
